Attribution: patent US20240141072A1

- experimentalTarget: T1, biotinylated human DLL3 protein expressed as a human IgG1 fusion protein (human, UniProt Q9NYJ7 27-492, limits assumed, biotinylated)
- T1 sequence: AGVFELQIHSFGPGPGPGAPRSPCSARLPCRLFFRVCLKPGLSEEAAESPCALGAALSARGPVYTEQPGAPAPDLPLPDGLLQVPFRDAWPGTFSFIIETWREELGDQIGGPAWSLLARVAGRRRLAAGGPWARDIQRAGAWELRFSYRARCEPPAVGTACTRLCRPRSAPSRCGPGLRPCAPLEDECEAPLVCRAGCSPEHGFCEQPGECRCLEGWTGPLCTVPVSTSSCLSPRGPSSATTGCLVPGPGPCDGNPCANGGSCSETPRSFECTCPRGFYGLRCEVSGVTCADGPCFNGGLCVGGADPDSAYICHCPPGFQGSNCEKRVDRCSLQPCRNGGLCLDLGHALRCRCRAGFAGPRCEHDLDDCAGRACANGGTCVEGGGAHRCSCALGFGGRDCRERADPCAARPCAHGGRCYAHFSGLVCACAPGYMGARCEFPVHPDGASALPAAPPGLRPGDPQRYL
- protocolNotes: Octet BLI, single 50 nM
valueKind: pKd
// pKd: -log10(molar conc.)

binder	readoutNumber
2H011 anti-DLL3 trispecific protein (other, not shown: linker 1808, anti-albumin sdAb, linker 1808, anti-CD3 fragment, His6 1819) EVQLVESGGGLVQPGGSLTLSCVASGSTSRINAMGWYRRAPGKQRELVAGISSDGSKVYADSVKGRFTISRDNAKNSVYLQMNSLRAEDTAVYYCYYFRRVSGSSMRYWGQGTLVTVSS	8.30
1D011 anti-DLL3 trispecific protein (other, not shown: linker 1808, anti-albumin sdAb, linker 1808, anti-CD3 fragment, His6 1819) EVQLVESGGGLVQPGGSLTLSCVASGSTSSINAMAWYRRAPGKQRELVAGISSDNSKVYADSVKGRFTISRDNAKNSVYLQMNSLRAEDTAVYYCYYFRTVSGHSMRYWGQGTLVTVSS	8.36
3H06 anti-DLL3 trispecific protein (other, not shown: linker 1808, anti-albumin sdAb, linker 1808, anti-CD3 fragment, His6 1819) EVQLVESGGGLVQPGGSLTLSCAASGSSVSQLSMAWYRQAPGKKRELVAGISADGSTDYFDSVKGRFTISRDNAKNSVYLQMNSLRAEDTAVYYCYAYRWTTRGTYWGQGTLVTVSS	8.10
4F09 anti-DLL3 trispecific protein (other, not shown: linker 1808, anti-albumin sdAb, linker 1808, anti-CD3 fragment, His6 1819) EVQLVESGGGLVQPGGSLTLSCAASGSRVSFLSMAWYRQAPGKKRELVAGISADGSTDYIESVKGRFTISRDNAKNSVYLQMNSLRAEDTAVYYCYAYRWTTRYTYWGQGTLVTVSS	8.06
3G011 anti-DLL3 trispecific protein (other, not shown: linker 1808, anti-albumin sdAb, linker 1808, anti-CD3 fragment, His6 1819) EVQLVESGGGLVQPGGSLTLSCAASGSRVSFLSMAWYRQAPGKKRELVAGISADGSTGYIDSVKGRFTISRDNAKNSVYLQMNSLRAEDTAVYYCYAYRWATRYTYWGQGTLVTVSS	7.77

// moving on: another record for pKd
(Q) Looking for the measured pKd of 3H010 anti-DLL3 trispecific protein (other, not shown: linker 1808, anti-albumin sdAb, linker 1808, anti-CD3 fragment, His6 1819) EVQLVESGGGLVQPGGSLTLSCAASGSSVSFLSMAWYRQAPGKKRELVAGISADGSTAYIDSVKGRFTISRDNAKNSVYLQMNSLRAEDTAVYYCYAYRWTTRRTYWGQGTLVTVSS , can you help?
(A) 8.07
